- SYSTEM_TESTED: T1, glucose-dependent insulinotropic peptide (gastric inhibitory polypeptide) receptor (GIPR), primary cAMP assay (human, UniProt P48546 22-466)
- T1 sequence (looked up): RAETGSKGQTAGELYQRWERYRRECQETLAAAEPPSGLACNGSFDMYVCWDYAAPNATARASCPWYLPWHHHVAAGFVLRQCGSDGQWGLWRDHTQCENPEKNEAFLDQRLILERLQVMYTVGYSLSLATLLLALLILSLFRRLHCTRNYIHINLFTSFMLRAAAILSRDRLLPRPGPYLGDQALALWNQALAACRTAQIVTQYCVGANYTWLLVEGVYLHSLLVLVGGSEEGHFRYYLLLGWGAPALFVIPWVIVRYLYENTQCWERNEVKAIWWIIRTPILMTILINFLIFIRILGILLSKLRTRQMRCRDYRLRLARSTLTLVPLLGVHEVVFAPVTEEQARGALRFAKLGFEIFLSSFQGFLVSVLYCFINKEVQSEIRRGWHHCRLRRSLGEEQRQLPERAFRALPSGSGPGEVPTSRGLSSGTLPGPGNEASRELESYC
- ASSAY_EXPLANATION: cell-based or functional assay
Starred links: 1 amine or outer side, 2 acyl side, 3 side chain; linkers in the order of their positions; H or OH if unused. Non-standard residues stand in square brackets, D forms with d. Groups on a side chain read outwards from the residue. Primed or numbered codes have the meaning given here. No end group written: not given here. *: point of attachment. γGlu = O=C(O)[C@H](CCC(=O)[*:2])N[*:1]; Palmitoyl = CCCCCCCCCCCCCCCC(=O)*; αMeF = C[C@](N)(Cc1ccccc1)C(=O)O; αMeK = C[C@](N)(CCCCN)C(=O)O; αMeS = C[C@](N)(CO)C(=O)O; PEG2′ = not defined here; Aib = CC(C)(N)C(=O)O
Kindly supply the reported Primary assay EC50 (cAMP), n2 values for the records listed here.
Numbers only here, please. The scale is nM.

Which Primary assay EC50 (cAMP), n2 value is on record for H[Aib]EGS[αMeF]TSDV[αMeS]SK([PEG2′-PEG2′-γGlu-Palmitoyl])LEGEAA[αMeK]EFIAK([PEG2′-PEG2′-γGlu-Palmitoyl])VVEGG-NH2 [SEQ ID NO: 266] ? 22.2

May I ask what Primary assay EC50 (cAMP), n2 has been recorded for H[Aib]EGS[αMeF]TSDVSK([PEG2′-PEG2′-γGlu-Palmitoyl])YLEGEAAEEFIK([PEG2′-PEG2′-γGlu-Palmitoyl])WVVEGG-NH2 [SEQ ID NO: 246] ? 21.4

Origin of measurements: patent US20200079833A1
